Molecular target: human ETB receptor (Homo sapiens)
Construct: expressed in transfected cells; host or cells: COS7 cells
Sequence (P24530 27-442): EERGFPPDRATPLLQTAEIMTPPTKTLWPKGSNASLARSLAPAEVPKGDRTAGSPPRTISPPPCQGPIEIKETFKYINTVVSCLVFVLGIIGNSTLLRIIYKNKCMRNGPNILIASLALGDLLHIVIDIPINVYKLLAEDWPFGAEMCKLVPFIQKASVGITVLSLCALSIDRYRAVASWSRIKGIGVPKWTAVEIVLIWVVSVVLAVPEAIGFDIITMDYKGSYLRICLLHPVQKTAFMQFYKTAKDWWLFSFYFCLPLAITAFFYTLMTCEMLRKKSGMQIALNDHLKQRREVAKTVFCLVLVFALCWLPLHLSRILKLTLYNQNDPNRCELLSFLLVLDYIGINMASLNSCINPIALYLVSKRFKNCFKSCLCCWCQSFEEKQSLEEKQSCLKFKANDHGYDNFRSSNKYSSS
Assay: Endothelin binding inhibition, Binding Test #2: competition with 125I-ET-1 for ETB receptors on transfected COS7 cell membranes
Settings: incubation at 4° C. (values without †)
Would you mind telling me the reported IC50 of each entry?
Give bare numbers, in nM.

The examples below pair each entry with its known result.
- smiles str: "Cc1noc(NS(=O)(=O)c2c(Cc3ccc4c(c3)OCO4)sc3ccccc23)c1Br"
  IC50 (nM): 324
- smiles str: "Cc1noc(NS(=O)(=O)c2c(C)sc3ccccc23)c1C"
  IC50 (nM): 16600

[ask] Consider the compound shown here: `Cc1ccc(-c2ccc(S(=O)(=O)Nc3noc(C)c3Br)s2)cc1` What is its recorded IC50?
[reply] 359

====

molecular target: human ETB receptor (Homo sapiens); construct: expressed in transfected cells; host or cells: COS7 cells; experiment: Endothelin binding inhibition, Binding Test #2: competition with 125I-ET-1 for ETB receptors on transfected COS7 cell membranes; details: incubation at 24° C. (values marked †)
Category key, based on recorded IC50: category 1 = under 5 µM, category 2 = from 5 µM up to 40 µM, category 3 = 40 µM and over

[ask] Would you mind sorting `Cc1noc(NS(=O)(=O)c2ccsc2C(=O)Nc2cc3c(cc2CC(=O)N(C)C)OCO3)c1Cl` into the appropriate category?
[reply] category 2

[ask] Would you mind sorting `Cc1ccc(CCc2ccsc2S(=O)(=O)Nc2onc(C)c2Br)c(C)c1` into the appropriate category?
[reply] category 1

[ask] Would you mind sorting `Cc1cc(C)c(NC(=O)c2sccc2S(=O)(=O)Nc2onc(C)c2Cl)c(C)c1C#N` into the appropriate category?
[reply] category 3

[ask] Would you mind sorting `CC(=O)c1cc2c(cc1NC(=O)c1sccc1S(=O)(=O)Nc1onc(C)c1Cl)OCO2` into the appropriate category?
[reply] category 2

[ask] Would you mind sorting `Cc1ccc(CC(=O)c2sccc2S(=O)(=O)Nc2onc(C)c2Cl)c(C)c1` into the appropriate category?
[reply] category 1

[ask] Would you mind sorting `Cc1noc(NS(=O)(=O)c2csc(-c3ccccc3C=O)c2)c1Br` into the appropriate category?
[reply] category 1

====

target: human ETB receptor (Homo sapiens, UniProt P24530); construct: expressed in transfected cells; host or cells: COS7 cells; test: Endothelin binding inhibition, Binding Test #2: competition with 125I-ET-1 for ETB receptors on transfected COS7 cell membranes; settings: incubation at 24° C. (values marked †)
observed property: pIC50
Give bare numbers, as −log10 of the molar value.

- smiles str: "Cc1cc(C)c(NC(=O)c2sccc2S(=O)(=O)Nc2onc(C)c2Cl)c(C)c1O"
  pIC50: 4.73
- smiles str: "Cc1noc(NS(=O)(=O)c2ccsc2C(=O)Nc2ccc(O)nn2)c1Br"
  pIC50: 4.09
- smiles str: "Cc1noc(NS(=O)(=O)c2ccsc2NC(=O)Oc2ccc3c(c2)OCO3)c1Br"
  pIC50: 5.23
- smiles str: "Cc1noc(NS(=O)(=O)c2ccsc2C(=O)Oc2cccc(N(C)C)c2)c1Cl"
  pIC50: 4.22
- smiles str: "COc1ccccc1-c1ccsc1S(=O)(=O)Nc1onc(C)c1Br"
  pIC50: 4.23

Your task in this section: give pIC50 for each listed record.
1. COc1ccc(OC(=O)c2sccc2S(=O)(=O)Nc2onc(C)c2Br)cc1
2. CCCCc1ccc(-c2ccsc2S(=O)(=O)Nc2onc(C)c2Br)cc1
3. Cc1noc(NS(=O)(=O)c2sccc2-c2ccc(CC(C)C)cc2)c1Br
4. CCCc1cc2c(cc1OC(=O)c1sccc1S(=O)(=O)Nc1onc(C)c1Br)OCO2

[reply]
[3.95, 5.21, 5.56, 4.92]

Your task in this section: give pIC50 for each listed record.
1. Cc1cc(C)c(CNC(=O)c2sccc2S(=O)(=O)Nc2onc(C)c2Cl)c(C)c1
2. COc1ccc(Cc2sc3ccccc3c2S(=O)(=O)Nc2onc(C)c2Br)cc1

[reply]
1. 4.16
2. 5.82

Your task in this section: give pIC50 for each listed record.
1. Cc1ccc(CCc2sccc2S(=O)(=O)Nc2onc(C)c2Br)c(C)c1
2. Cc1noc(NS(=O)(=O)c2ccsc2C(=O)Nc2ccc3c(c2)OCO3)c1Cl

[reply]
5.46
5.04

Provenance of the data: patent US6632829B2
